Kd reference
- assay_system: HLA-B*18:01
- assay: IEDB peptide-MHC binding, purified MHC/competitive/radioactivity; filed as Kd, often an IC50 or EC50 that approximates it; bounds were set here for any values at or beyond the usual limits of such assays
- protocol_conditions: source organism: Mammarenavirus machupoense
readout_name: Kd (µM)

- seq_string: "CEEGKLCYLT"
  bound_type: "="
  meas_value: 14.1
- seq_string: "PENQEDPLVL"
  bound_type: "≥"
  meas_value: 70.4
- seq_string: "KEKAPDVGVL"
  bound_type: "≥"
  meas_value: 70.4
- seq_string: "RECYAQRFYL"
  bound_type: "="
  meas_value: 0.137

---

- assay_system: HLA-A*02:12
- assay: IEDB peptide-MHC binding, purified MHC/direct/fluorescence; filed as Kd, often an IC50 or EC50 that approximates it; bounds were set here for any values at or beyond the usual limits of such assays
- protocol_conditions: source organism: Brucella suis 1330
pKd: −log10 of the molar value.

- seq_string: "QAHMGIAGL"
  pKd: "≤ 4.70"

---

- assay_system: HLA-A*03:01
- assay: IEDB peptide-MHC binding, purified MHC/competitive/radioactivity; filed as Kd, often an IC50 or EC50 that approximates it; bounds were set here for any values at or beyond the usual limits of such assays
- protocol_conditions: source organism: Mammarenavirus machupoense
pKd: −log10 of the molar value.
readout_name: pKd

- seq_string: "LMAFANQIHH"
  readout_name: "pKd"
  meas_value: 6.03

---

- assay_system: HLA-B*27:05
- assay: IEDB peptide-MHC binding, purified MHC/competitive/fluorescence; filed as Kd, often an IC50 or EC50 that approximates it; bounds were set here for any values at or beyond the usual limits of such assays
- protocol_conditions: source organism: Influenza A virus (A/swine/Italy/1509-6/97(H1N1))

- seq_string: "TRALVRTGM"
  Kd: "8.3 nM"

---

- assay_system: HLA-A*24:02
- assay: IEDB peptide-MHC binding, purified MHC/competitive/fluorescence; bounds were set here for any values at or beyond the usual limits of such assays
- protocol_conditions: source organism: Sudan ebolavirus
pIC50: −log10 of the molar value.

- seq_string: "NADIGEWAF"
  assay_system: "HLA-A*24:02"
  pIC50: 4.26
- seq_string: "IYTEGLMHN"
  assay_system: "HLA-A*24:02"
  pIC50: 5.36
- seq_string: "TTELRTYTI"
  assay_system: "HLA-A*24:02"
  pIC50: 6.03
- seq_string: "ELSFEALSL"
  assay_system: "HLA-A*24:02"
  pIC50: 4.40
- seq_string: "KCNPNLHYW"
  assay_system: "HLA-A*24:02"
  pIC50: 6.42
- seq_string: "LITSTVTGI"
  assay_system: "HLA-A*24:02"
  pIC50: 4.75
- seq_string: "RTYTILNRK"
  assay_system: "HLA-A*24:02"
  pIC50: 4.37

---

- assay_system: HLA-B*15:01
- assay: IEDB peptide-MHC binding, purified MHC/direct/fluorescence; filed as Kd, often an IC50 or EC50 that approximates it; bounds were set here for any values at or beyond the usual limits of such assays
- protocol_conditions: source organism: Homo sapiens

- seq_string: "FHMDPSGTF"
  units: "nM"
  Kd: 465

---

- assay_system: HLA-B*07:02
- assay: IEDB peptide-MHC binding, purified MHC/direct/fluorescence; filed as Kd, often an IC50 or EC50 that approximates it; bounds were set here for any values at or beyond the usual limits of such assays
- protocol_conditions: source organism: Influenza A virus (A/WSN/1933(H1N1))

- seq_string: "NLEPGTFDL"
  Kd: "≥ 20 µM"

---

- assay_system: HLA-B*07:02
- assay: IEDB peptide-MHC binding, purified MHC/competitive/fluorescence; filed as Kd, often an IC50 or EC50 that approximates it; bounds were set here for any values at or beyond the usual limits of such assays
- protocol_conditions: source organism: Influenza A virus (A/Swine/Colorado/23619/99(H3N2))
pKd: −log10 of the molar value.

- seq_string: "MPRQKIIGPL"
  assay_system: "HLA-B*07:02"
  pKd: 8.18

---

- assay_system: HLA-C*15:02
- assay: IEDB peptide-MHC binding, purified MHC/direct/fluorescence; filed as Kd, often an IC50 or EC50 that approximates it; bounds were set here for any values at or beyond the usual limits of such assays
- protocol_conditions: source organism: Mus musculus
pKd: −log10 of the molar value.

- seq_string: "LWFRNHFVF"
  assay_system: "HLA-C*15:02"
  pKd: "≤ 4.70"

---

- assay_system: HLA-C*03:03
- assay: IEDB peptide-MHC binding, purified MHC/direct/fluorescence; filed as Kd, often an IC50 or EC50 that approximates it; bounds were set here for any values at or beyond the usual limits of such assays
- protocol_conditions: source organism: Mycobacterium tuberculosis str. Haarlem
readout_name: Kd (nM)

- seq_string: "YLVDCGAEL"
  readout_name: "Kd"
  bound_type: "≤"
  meas_value: 1
- seq_string: "YVYPDNLPV"
  readout_name: "Kd"
  bound_type: "="
  meas_value: 2

---

- assay_system: HLA-B*48:01
- assay: IEDB peptide-MHC binding, purified MHC/direct/fluorescence; filed as Kd, often an IC50 or EC50 that approximates it; bounds were set here for any values at or beyond the usual limits of such assays
- protocol_conditions: source organism: Vibrio cholerae
readout_name: Kd

- seq_string: "FPLTQRDVL"
  readout_name: "Kd"
  meas_value: "≥ 20 µM"

---

- assay_system: HLA-B*40:01
- assay: IEDB peptide-MHC binding, purified MHC/direct/fluorescence; filed as Kd, often an IC50 or EC50 that approximates it; bounds were set here for any values at or beyond the usual limits of such assays
- protocol_conditions: source organism: Brucella abortus
pKd: −log10 of the molar value.

- seq_string: "EKPPVRPIF"
  pKd: "≤ 4.70"

---

- assay_system: HLA-A*02:12
- assay: IEDB peptide-MHC binding, purified MHC/direct/fluorescence; filed as Kd, often an IC50 or EC50 that approximates it; bounds were set here for any values at or beyond the usual limits of such assays
- protocol_conditions: source organism: Vibrio parahaemolyticus AQ3810
readout_name: Kd

- seq_string: "RLDKPLWLH"
  meas_value: "≥ 20 µM"

---

- assay_system: HLA-A*01:01
- assay: IEDB peptide-MHC binding, purified MHC/direct/fluorescence; filed as Kd, often an IC50 or EC50 that approximates it; bounds were set here for any values at or beyond the usual limits of such assays
- protocol_conditions: source organism: Influenza A virus (A/WSN/1933(H1N1))
pKd: −log10 of the molar value.
readout_name: pKd

- seq_string: "NLEPGTFDL"
  meas_value: "≤ 4.70"

---

- assay_system: HLA-B*27:05
- assay: IEDB peptide-MHC binding, purified MHC/direct/fluorescence; filed as Kd, often an IC50 or EC50 that approximates it; bounds were set here for any values at or beyond the usual limits of such assays
- protocol_conditions: source organism: Giardia lamblia ATCC 50803

- seq_string: "DYIYLPLLK"
  Kd: "≥ 20 µM"

---

- assay_system: HLA-B*08:02
- assay: IEDB peptide-MHC binding, purified MHC/direct/fluorescence; filed as Kd, often an IC50 or EC50 that approximates it; bounds were set here for any values at or beyond the usual limits of such assays
- protocol_conditions: source organism: Yellow fever virus

- seq_string: "GSRAYRNAL"
  Kd: "≥ 20 µM"

---

- assay_system: HLA-B*18:01
- assay: IEDB peptide-MHC binding, purified MHC/competitive/fluorescence; filed as Kd, often an IC50 or EC50 that approximates it; bounds were set here for any values at or beyond the usual limits of such assays
- protocol_conditions: source organism: Pleistophora sp. LS
pKd: −log10 of the molar value.

- seq_string: "VELQIGWTV"
  pKd: "≥ 9.00"

---

Kd reference
- assay_system: HLA-B*53:01
- assay: IEDB peptide-MHC binding, purified MHC/competitive/radioactivity; filed as Kd, often an IC50 or EC50 that approximates it; bounds were set here for any values at or beyond the usual limits of such assays
- protocol_conditions: source organism: Dengue virus 4 Philippines/H241/1956
readout_name: Kd (nM)

- seq_string: "RMVMTTTANW"
  assay_system: "HLA-B*53:01"
  units: "nM"
  meas_value: 20.5
- seq_string: "EPWLSSKPEF"
  assay_system: "HLA-B*53:01"
  units: "nM"
  meas_value: 684
- seq_string: "MAMTTVLSI"
  assay_system: "HLA-B*53:01"
  units: "nM"
  meas_value: 2.34

---

- assay_system: HLA-A*33:01
- assay: IEDB peptide-MHC binding, purified MHC/competitive/radioactivity; filed as Kd, often an IC50 or EC50 that approximates it; bounds were set here for any values at or beyond the usual limits of such assays
- protocol_conditions: source organism: Dengue virus 3 Martinique/1243/1999

- seq_string: "QMWSLMYFHR"
  assay_system: "HLA-A*33:01"
  Kd: "4.14 nM"
